B1: ALKBH7 (parent)
chain: SVICRSLPEGMGPGESGQPPPAC

- Variants of: B1
- Assay Remarks: protein stability index of a GFP-peptide fusion (GPS, HEK-293T) (PSI 1-6); higher = more stable;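 further: lentivirally expressed fusions sorted by FACS into six bins by GFP to DsRed ratio, PSI derived from sequencing read proportions per bin multiplied by bin number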
- Condition Details: c terminus: native
For each of the variants below, state its protein stability index.
One number for each entry.

Solved cases (7 shown):
Entry Sequence	Result Number
SVILRSLPEGMGPGESGQPPPAC [C4L]	2.03
SVICRSLPEGMGPGESSQPPPAC [G17S]	1.71
SVICRSLPEGMGPGESGQPPPTC [A22T]	4.77
SVICRSLPEGMGPGESGCPPPAC [Q18C]	1.66
SFICRSLPEGMGPGESGQPPPAC [V2F]	2.78
SVIHRSLPEGMGPGESGQPPPAC [C4H]	2.29
SVICSSLPEGMGPGESGQPPPAC [R5S]	2.65

Okay, next one:
Challenge: Requested field: protein stability index. Item: SVICRSLPEGMGPGESGQPPPGC [A22G]
Response given: 5.1

The reported measurements were obtained from the supplement of paper PMC10567573.
